# measurement description: Oral bioavailability in mouse
# Format: ADME, organism-based
# protocol conditions: in vivo
test readout: bioavailability (%)
Express it in %; write the number only.

# compound CC[C@@H](C(=O)OC(C)(C)C)N1C(=O)[C@@](C)(CC(=O)O)C[C@H](c2cccc(Cl)c2)[C@H]1c1ccc(Cl)cc1 ; its bioavailability = 36

----------
The reader will find reported IC50 values listed item by item below.
# experimental system: Tumour suppressor p53/oncoprotein Mdm2 (Homo sapiens, UniProt Q00987)
# Sequence (P04637 whole entry): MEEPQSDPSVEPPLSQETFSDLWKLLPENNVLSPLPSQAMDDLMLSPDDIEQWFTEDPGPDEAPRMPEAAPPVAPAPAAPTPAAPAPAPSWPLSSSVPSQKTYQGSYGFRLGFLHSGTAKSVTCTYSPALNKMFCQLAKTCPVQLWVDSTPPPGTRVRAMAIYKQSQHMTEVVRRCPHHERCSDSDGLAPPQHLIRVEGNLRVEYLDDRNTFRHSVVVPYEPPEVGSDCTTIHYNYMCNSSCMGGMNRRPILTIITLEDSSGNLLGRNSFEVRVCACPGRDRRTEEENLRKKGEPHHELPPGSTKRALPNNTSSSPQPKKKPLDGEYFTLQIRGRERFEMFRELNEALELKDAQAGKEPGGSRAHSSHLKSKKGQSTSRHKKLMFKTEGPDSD
# Sequence (Q00987 whole entry): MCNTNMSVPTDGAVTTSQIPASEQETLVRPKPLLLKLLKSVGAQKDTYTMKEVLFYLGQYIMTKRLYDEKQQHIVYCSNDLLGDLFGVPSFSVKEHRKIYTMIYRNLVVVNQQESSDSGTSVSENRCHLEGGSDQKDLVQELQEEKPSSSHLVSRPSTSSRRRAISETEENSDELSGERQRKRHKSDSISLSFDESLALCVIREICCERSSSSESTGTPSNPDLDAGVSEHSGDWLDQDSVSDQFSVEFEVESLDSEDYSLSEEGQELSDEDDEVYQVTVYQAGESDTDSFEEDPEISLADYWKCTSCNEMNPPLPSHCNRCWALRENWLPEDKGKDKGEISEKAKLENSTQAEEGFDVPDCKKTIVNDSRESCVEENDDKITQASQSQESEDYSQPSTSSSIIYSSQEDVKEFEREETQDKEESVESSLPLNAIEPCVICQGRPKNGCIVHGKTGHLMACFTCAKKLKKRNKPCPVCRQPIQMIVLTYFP
# Type: protein assay

Consider the worked cases shown below.
O=C(O)CC[C@@H]1C[C@H](c2cccc(Cl)c2)[C@@H](c2ccc(Cl)cc2)N(CC2CC2)C1=O ... 6.64 µM
CCOC(=O)[C@H](C)N1C(=O)CC[C@H](c2cccc(Cl)c2)[C@H]1c1ccc(Cl)cc1 (racemic) ... > 30 µM

Given the molecule CCC[C@@H](C(=O)OCC)N1C(=O)CC[C@H](c2cccc(Cl)c2)[C@H]1c1ccc(Cl)cc1 (racemic) and test system Tumour suppressor p53/oncoprotein Mdm2 (Homo sapiens, UniProt Q00987), the measured IC50 is > 30 µM

Given the molecule CCOC(=O)[C@H](CC)N1C(=O)CC[C@H](c2cccc(Cl)c2)[C@H]1c1ccc(Cl)cc1 (racemic) and test system Tumour suppressor p53/oncoprotein Mdm2 (Homo sapiens, UniProt Q00987), the measured IC50 is 18.7 µM

----------
# experimental system: Tumour suppressor p53/oncoprotein Mdm2 (Homo sapiens)
# Format: protein assay
Note to self: use label 1 only for IC50 readings below 2000 nM; a reading exactly at 2000 nM still gets label 0.

O=C1CC[C@H](c2cccc(Cl)c2)[C@@H](c2ccc(Cl)cc2)N1Cc1ccccc1 (racemic) ... label 0
CCOC(=O)[C@@H](CC)N1C(=O)CC[C@H](c2cccc(Cl)c2)[C@H]1c1ccc(Cl)cc1 (racemic) ... label 0
CC[C@@H](C(=O)OC(C)(C)C)N1C(=O)[C@@H](Cc2nnn[nH]2)C[C@H](c2cccc(Cl)c2)[C@H]1c1ccc(Cl)cc1 ... label 1
CCCCN1C(=O)CC[C@H](c2cccc(Cl)c2)[C@H]1c1ccc(Cl)cc1 (racemic) ... label 0
O=C1CC[C@@H](c2cccc(Cl)c2)[C@H](c2ccc(Cl)cc2)N1CC1CC1 ... label 0

Task: Regarding C=CC[C@H]1C[C@H](c2cccc(Cl)c2)[C@@H](c2ccc(Cl)cc2)N(CC2CC2)C1=O , kindly confirm whether its IC50 is beneath 2000 nM.
Result: label 0

Task: Regarding O=C1CC[C@H](c2cccc(Cl)c2)[C@@H](c2ccc(Cl)cc2)N1CC1CC1 , kindly confirm whether its IC50 is beneath 2000 nM.
Result: label 1

Task: Regarding O=C1CC[C@H](c2cccc(Cl)c2)[C@@H](c2ccc(Cl)cc2)N1 (racemic) , kindly confirm whether its IC50 is beneath 2000 nM.
Result: label 0

Task: Regarding CCOC(=O)[C@H](CC)N1C(=O)CC[C@H](c2cccc(Cl)c2)[C@H]1c1ccc(Cl)cc1 (racemic) , kindly confirm whether its IC50 is beneath 2000 nM.
Result: label 1

----------
# measurement description: Intrinsic clearance in human hepatocytes assessed per million cells
# Format: ADME, cell-based, Hepatocyte
# protocol conditions: read-out: CLH
test readout: hepatocyte CLint (µL/min/1e6 cells)
Express it in µL/min/1e6 cells; write the number only.

# molecule CC[C@@H](C(=O)OC(C)(C)C)N1C(=O)[C@@](C)(CC(=O)O)C[C@H](c2cccc(Cl)c2)[C@H]1c1ccc(Cl)cc1 ; its hepatocyte CLint = 26

----------
# measurement description: Volume of distribution at steady state in rat
# Format: ADME, organism-based
# protocol conditions: in vivo, read-out: Vdss
test readout: Vd

CC[C@@H]([C@H](C)O)N1C(=O)[C@@](C)(CC(=O)O)C[C@H](c2cccc(Cl)c2)[C@H]1c1ccc(Cl)cc1 ... 12 L/kg

# compound CC[C@@H](C(=O)OC(C)(C)C)N1C(=O)[C@@](C)(CC(=O)O)C[C@H](c2cccc(Cl)c2)[C@H]1c1ccc(Cl)cc1 ; its Vd = 1.5 L/kg

----------
# measurement description: Plasma clearance in mouse
# Format: ADME, organism-based
test readout: clearance (mL/min/kg)
Express it in mL/min/kg; write the number only.

# compound CC[C@@H](C(=O)OC(C)(C)C)N1C(=O)[C@@](C)(CC(=O)O)C[C@H](c2cccc(Cl)c2)[C@H]1c1ccc(Cl)cc1 ; its clearance = 25

----------
# experimental system: Tumour suppressor p53/oncoprotein Mdm2 (Homo sapiens, UniProt Q00987)
# Type: protein assay
test readout: IC50

Consider the worked cases shown below.
O=C(O)CC[C@H]1C[C@H](c2cccc(Cl)c2)[C@@H](c2ccc(Cl)cc2)N(CC2CC2)C1=O ... 6.63 µM
O=C1CC[C@H](c2cccc(Cl)c2)[C@@H](c2ccc(Cl)cc2)N1 (racemic) ... > 30 µM
O=C1CC[C@H](c2cccc(Cl)c2)[C@@H](c2ccc(Cl)cc2)N1Cc1ccccc1 (racemic) ... > 30 µM
C=CC[C@H]1C[C@H](c2cccc(Cl)c2)[C@@H](c2ccc(Cl)cc2)N(CC2CC2)C1=O ... > 30 µM
CCOC(=O)[C@@H](CC)N1C(=O)CC[C@H](c2cccc(Cl)c2)[C@H]1c1ccc(Cl)cc1 (racemic) ... > 30 µM

# compound CC[C@@H](C(=O)OC(C)(C)C)N1C(=O)[C@@H](Cc2nnn[nH]2)C[C@H](c2cccc(Cl)c2)[C@H]1c1ccc(Cl)cc1 ; its IC50 = 0.0203 µM

# compound CCCCN1C(=O)CC[C@H](c2cccc(Cl)c2)[C@H]1c1ccc(Cl)cc1 (racemic) ; its IC50 = > 30 µM

----------
# experimental system: CYP3A4 (Homo sapiens, UniProt P08684)
# Sequence (P08684 whole entry): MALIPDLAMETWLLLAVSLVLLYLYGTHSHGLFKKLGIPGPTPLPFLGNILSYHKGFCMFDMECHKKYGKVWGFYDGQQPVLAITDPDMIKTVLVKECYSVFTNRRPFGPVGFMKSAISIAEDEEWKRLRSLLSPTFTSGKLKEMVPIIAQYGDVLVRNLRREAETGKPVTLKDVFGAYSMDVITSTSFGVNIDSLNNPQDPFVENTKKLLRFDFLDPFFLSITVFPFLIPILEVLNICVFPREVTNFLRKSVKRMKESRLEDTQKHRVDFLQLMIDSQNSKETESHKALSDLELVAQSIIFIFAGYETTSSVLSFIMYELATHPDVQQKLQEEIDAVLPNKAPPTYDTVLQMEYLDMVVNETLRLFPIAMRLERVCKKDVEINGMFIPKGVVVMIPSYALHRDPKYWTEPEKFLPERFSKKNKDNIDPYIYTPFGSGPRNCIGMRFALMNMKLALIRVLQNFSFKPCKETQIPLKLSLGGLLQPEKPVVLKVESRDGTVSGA
# measurement description: Time dependent inhibition of human CYP3A4 assessed as residual activity at 10 uM after 15 mins relative to control
# Type: ADME
# protocol conditions: read-out: Activity
test readout: activity at 0.25 h, 10 µM (%)
Express it in %; write the number only.

CC[C@@H](C(=O)OC(C)(C)C)N1C(=O)[C@@](C)(Cc2nnn[nH]2)C[C@H](c2cccc(Cl)c2)[C@H]1c1ccc(Cl)cc1 ... 30

Alright, here's another compound for you.
# compound CC[C@@H](C(=O)OC(C)(C)C)N1C(=O)[C@@](C)(CC(=O)O)C[C@H](c2cccc(Cl)c2)[C@H]1c1ccc(Cl)cc1 ; its activity at 0.25 h, 10 µM = 77

----------
# measurement description: Volume of distribution in cynomolgus monkey
# Type: ADME, organism-based, Macaca fascicularis
# protocol conditions: in vivo
test readout: Vd
State the value with its unit after it.

# molecule CC[C@@H]([C@H](C)O)N1C(=O)[C@@](C)(CC(=O)O)C[C@H](c2cccc(Cl)c2)[C@H]1c1ccc(Cl)cc1 ; its Vd = 6.2 L/kg

----------
The reader will find reported Vd values listed item by item below.
# measurement description: Volume of distribution at steady state in mouse
# Assay type: ADME, organism-based
# protocol conditions: in vivo, read-out: Vdss
Express it in L/kg; write the number only.

CC[C@@H]([C@H](C)O)N1C(=O)[C@@](C)(CC(=O)O)C[C@H](c2cccc(Cl)c2)[C@H]1c1ccc(Cl)cc1 ... 5.2

Alright, here's another compound for you.
# compound CC[C@@H](C(=O)OC(C)(C)C)N1C(=O)[C@@](C)(CC(=O)O)C[C@H](c2cccc(Cl)c2)[C@H]1c1ccc(Cl)cc1 ; its Vd = 1.3

----------
# measurement description: Oral bioavailability in rat
# Format: ADME, organism-based
# protocol conditions: in vivo
test readout: bioavailability (%)
Express it in %; write the number only.

# compound CC[C@@H](C(=O)OC(C)(C)C)N1C(=O)[C@@](C)(CC(=O)O)C[C@H](c2cccc(Cl)c2)[C@H]1c1ccc(Cl)cc1 ; its bioavailability = 77

----------
# experimental system: UniProt:O75469
# Sequence (O75469 whole entry): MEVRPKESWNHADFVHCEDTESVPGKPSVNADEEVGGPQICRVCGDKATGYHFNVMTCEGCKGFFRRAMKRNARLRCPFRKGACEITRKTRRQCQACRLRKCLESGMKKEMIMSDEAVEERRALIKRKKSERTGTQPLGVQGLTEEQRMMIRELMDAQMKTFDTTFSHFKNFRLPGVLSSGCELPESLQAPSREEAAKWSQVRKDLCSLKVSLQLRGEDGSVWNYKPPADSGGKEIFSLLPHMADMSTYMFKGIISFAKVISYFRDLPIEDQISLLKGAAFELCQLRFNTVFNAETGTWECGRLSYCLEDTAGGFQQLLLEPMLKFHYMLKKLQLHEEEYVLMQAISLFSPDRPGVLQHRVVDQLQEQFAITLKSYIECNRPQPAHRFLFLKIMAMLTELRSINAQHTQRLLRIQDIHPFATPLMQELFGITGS
# measurement description: Activation of human PXR at 2 uM relative to control
# protocol conditions: read-out: Activity
The reader will find reported activity at 2 µM values listed item by item below.
Express it in %; write the number only.

# compound CC[C@@H](C(=O)OC(C)(C)C)N1C(=O)[C@@](C)(Cc2nnn[nH]2)C[C@H](c2cccc(Cl)c2)[C@H]1c1ccc(Cl)cc1 ; its activity at 2 µM = 65

# compound CC[C@@H](C(=O)OC(C)(C)C)N1C(=O)[C@@](C)(CC(=O)O)C[C@H](c2cccc(Cl)c2)[C@H]1c1ccc(Cl)cc1 ; its activity at 2 µM = 27

----------
# measurement description: Plasma clearance in rat
# Format: ADME, organism-based
test readout: clearance (mL/min/kg)
Express it in mL/min/kg; write the number only.

# compound CC[C@@H](C(=O)OC(C)(C)C)N1C(=O)[C@@](C)(CC(=O)O)C[C@H](c2cccc(Cl)c2)[C@H]1c1ccc(Cl)cc1 ; its clearance = 45

Each recorded value in this set is attributed to ChEMBL document CHEMBL2176930.
